- Test Target: ALK (baculovirus expressed human ALK kinase domain F1098-K1410) (Homo sapiens, UniProt Q9UM73)
- Construct: human ALK kinase domain F1098-K1410; made in house
- Sequence (Q9UM73 1098-1410): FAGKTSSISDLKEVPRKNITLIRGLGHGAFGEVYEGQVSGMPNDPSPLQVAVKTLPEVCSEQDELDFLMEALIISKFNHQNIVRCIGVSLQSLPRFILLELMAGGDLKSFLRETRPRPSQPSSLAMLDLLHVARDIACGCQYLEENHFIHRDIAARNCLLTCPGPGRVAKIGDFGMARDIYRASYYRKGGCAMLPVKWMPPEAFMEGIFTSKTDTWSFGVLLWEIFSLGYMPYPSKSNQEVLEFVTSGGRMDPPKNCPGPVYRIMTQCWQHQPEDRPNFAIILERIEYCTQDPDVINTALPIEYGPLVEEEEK
- Assay: biochemical
- Run Conditions: 1 μM ATP, 4 μM poly-AEKY, 12 nM ALK, 2 hours at ambient temperature; read-out: ALK IC50

>  <Compound>
C[C@H](NC(=O)c1coc(CNC(=O)COc2ccc(OC(F)(F)F)cc2)n1)C1CCCCC1

>  <IC50>
500 to 2000 nM

$$$$
>  <Compound>
O=C(COc1ccc(OC(F)(F)F)cc1)NCc1cc(C(=O)NCCc2cccc(Cl)c2)no1

>  <IC50>
> 2000 nM

$$$$
>  <Compound>
CN(C(=O)OC(C)(C)C)C1CCN(C(=O)c2csc(CNC(=O)COc3ccc(OC(F)(F)F)cc3)n2)C1 (centres unmarked)

>  <IC50>
500 to 2000 nM

$$$$
>  <Compound>
CN(C)Cc1ccc(CSCCNC(=O)c2csc(CNC(=O)COc3ccc(OC(F)(F)F)cc3)n2)o1

>  <IC50>
50 to 500 nM

$$$$
>  <Compound>
O=C(NCc1nc(C(=O)NCCc2cccc(Cl)c2)cs1)N[C@@H]1C[C@H]1c1ccccc1

>  <IC50>
50 to 500 nM

$$$$
>  <Compound>
O=C(COc1ccc(OC(F)(F)F)cc1)NCc1nc(C(=O)NCCc2ccc(Cl)cc2)co1

>  <IC50>
500 to 2000 nM

$$$$
>  <Compound>
COc1cccc(CCNC(=O)c2csc(CNC(=O)COc3ccc(OC(F)(F)F)cc3)n2)c1OC

>  <IC50>
50 to 500 nM

$$$$
>  <Compound>
O=C(COc1ccc(OC(F)(F)F)cc1)NCc1nc(C(=O)NCCC2=CCCCC2)co1

>  <IC50>
50 to 500 nM

$$$$

---

Recorded pIC50 for the following compounds
- Test Target: ALK (baculovirus expressed human ALK kinase domain F1098-K1410) (Homo sapiens)
- Construct: human ALK kinase domain F1098-K1410; made in house
- Assay: biochemical
- Run Conditions: 1 μM ATP, 4 μM poly-AEKY, 12 nM ALK, 2 hours at ambient temperature; read-out: ALK IC50
pIC50: −log10 of the molar value.
Test Readout: pIC50

>  <Compound>
CC(C)(C)c1ccc(OCC(=O)NCc2nc(C(=O)NCCc3cccc(Cl)c3)cs2)cc1 [Entry 67]

>  <Test Readout>
pIC50

>  <Result Value>
6.30 to 7.30

$$$$
>  <Compound>
O=C(COc1cccc(Cl)c1)NCc1nc(C(=O)NCCc2cccc(Cl)c2)cs1 [Entry 161]

>  <Test Readout>
pIC50

>  <Result Value>
6.30 to 7.30

$$$$
>  <Compound>
O=C(COc1ccc(OC(F)(F)F)cc1)NCc1nc(C(=O)NCC2CCCCC2)cs1 [Entry 172]

>  <Test Readout>
pIC50

>  <Result Value>
6.30 to 7.30

$$$$
>  <Compound>
COc1cccc(CCNC(=O)c2csc(CNC(=O)COc3ccc(OC(F)(F)F)cc3)n2)c1 [Entry 40]

>  <Test Readout>
pIC50

>  <Result Value>
6.30 to 7.30

$$$$

---

- Test Target: ALK (baculovirus expressed human ALK kinase domain F1098-K1410) (Homo sapiens, UniProt Q9UM73)
- Construct: human ALK kinase domain F1098-K1410; made in house
- Assay: biochemical
- Run Conditions: 1 μM ATP, 4 μM poly-AEKY, 12 nM ALK, 2 hours at ambient temperature; read-out: ALK IC50

>  <Given Smiles>
O=C(COc1ccc(OC(F)(F)F)cc1)NCc1nc(C(=O)N[C@@H]2CCCc3ccccc32)cs1

>  <IC50>
50 to 500 nM

$$$$
>  <Given Smiles>
COc1ccc(CNC(=O)c2csc(CNC(=O)COc3ccc(OC(F)(F)F)cc3)n2)c(OC)c1

>  <IC50>
50 to 500 nM

$$$$
>  <Given Smiles>
COc1cccc(CNC(=O)c2csc(CN)n2)c1OC

>  <IC50>
> 2000 nM

$$$$
>  <Given Smiles>
NS(=O)(=O)c1ccc(CCNC(=O)c2coc(CNC(=O)COc3ccc(OC(F)(F)F)cc3)n2)cc1

>  <IC50>
50 to 500 nM

$$$$
>  <Given Smiles>
COc1cccc(CNC(=O)c2csc(CNC(=O)Cc3ccc4ccccc4c3)n2)c1OC

>  <IC50>
500 to 2000 nM

$$$$
>  <Given Smiles>
Cc1ccc(CCNC(=O)c2csc(CNC(=O)COc3ccc(OC(F)(F)F)cc3)n2)cc1C

>  <IC50>
50 to 500 nM

$$$$
